B1: LINE1-full (parent)
chain: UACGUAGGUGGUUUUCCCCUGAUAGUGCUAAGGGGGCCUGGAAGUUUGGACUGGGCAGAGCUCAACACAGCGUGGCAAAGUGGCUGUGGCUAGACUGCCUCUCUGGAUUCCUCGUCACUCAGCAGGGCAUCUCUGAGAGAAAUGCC

Variants of: B1
Test: self-cleavage, relative activity (ratio to wild type); higher = more cleavage; in vitro, sequencing; the parent is a self-cleaving ribozyme
Measured metric: self-cleavage

self-cleavage for UACGUAGGUGGUUUUCCCCUGAUAGUGCUAAGUGGGCCUGGAAGUUUGGACUGGGCAGAGCUCAACACAGCGUGGCAAAGUGGCUGUGGCUAGACUGCCUCUCUGGAUUCCUCGUCACUCAGCAGGGCAUCUCUGAGGGAAAUGCC [G33U A138G] ?
1.68

self-cleavage for UACGUAGGUGGUUUUCCCCUGAUAGUGCUAAGGGGGCCAGGACGUUUGGACUGGGCAGAGCUCAACACAGCGUGGCAAAGUGGCUGUGGCUAGACUGCCUCUCUGGAUUCCUCGUCACUCAGCAGGGCAUCUCUGAGAGAAAUGCC [U39A A43C] ?
0.66

Origin of the recorded values: the RNAGym collection of RNA variant scans (doi:10.7554/elife.90254)
